settings: 298.15 K; 101 kPa; Liquid; Vibrating tube method
Kindly supply the reported mass density values for the records listed here.
Give bare numbers, in kg/m3.

{"COMPOUND": "CCOS(=O)(=O)[O-].CCc1cccc[n+]1CC [1,2-diethylpyridinium ethylsulfate]", "UNIT_OF_MEASURE": "kg/m3", "VALUE_MEASURED": 1219.26}

Below is a list of compounds. For each, state its recorded mass density.
1. CCCCCCn1cc[n+](C)c1.N#CN=C=[N-] [1-hexyl-3-methylimidazolium dicyanamide]
2. CCCC[N+]1(C)CCCC1.N#CN=C=[N-] [1-butyl-1-methylpyrrolidinium dicyanamide]

[1028.56, 1013.53]

Below is a list of compounds. For each, state its recorded mass density.
1. COS(=O)(=O)[O-].C[n+]1ccccc1 [1-methylpyridinium methylsulfate]
2. CCCCn1cc[n+](C)c1.N#CN=C=[N-] [1-butyl-3-methylimidazolium dicyanamide]

[1346.12, 1060.17]

----------
details: 298.15 K; 101 kPa; Liquid; Sing-around technique in a fixed-path interferometer
READOUT_KIND: speed of sound (m/s)
Numbers only, in m/s.

Past entries and their recorded results:
{"COMPOUND": "CCCCCCn1cc[n+](C)c1.N#CN=C=[N-] [1-hexyl-3-methylimidazolium dicyanamide]", "UNIT_OF_MEASURE": "m/s", "VALUE_MEASURED": 1687.7}
{"COMPOUND": "CCCCn1cc[n+](C)c1.N#CN=C=[N-] [1-butyl-3-methylimidazolium dicyanamide]", "UNIT_OF_MEASURE": "m/s", "VALUE_MEASURED": 1738.1}
{"COMPOUND": "CCOS(=O)(=O)[O-].CCc1cccc[n+]1CC [1,2-diethylpyridinium ethylsulfate]", "UNIT_OF_MEASURE": "m/s", "VALUE_MEASURED": 1745.2}

CCCCn1cc[n+](C)c1.O=S(=O)([O-])C(F)(F)F [1-butyl-3-methylimidazolium trifluoromethanesulfonate] yielded speed of sound of 1391.4

----------
experiment: molar heat capacity at constant pressure; details: 288.15 K; 101.33 kPa; Liquid; Small sample (50 mg) DSC
READOUT_KIND: molar heat capacity at constant pressure (J/K/mol)
Give bare numbers, in J/K/mol.

Past entries and their recorded results:
{"COMPOUND": "CCCCn1cc[n+](C)c1.N#CN=C=[N-] [1-butyl-3-methylimidazolium dicyanamide]", "molar heat capacity at constant pressure [J/K/mol]": 367}
{"COMPOUND": "CCCC[N+]1(C)CCCC1.O=S(=O)([O-])C(F)(F)F [1-butyl-1-methylpyrrolidinium trifluoromethanesulfonate]", "molar heat capacity at constant pressure [J/K/mol]": 424}
{"COMPOUND": "CCCCCCn1cc[n+](C)c1.N#CN=C=[N-] [1-hexyl-3-methylimidazolium dicyanamide]", "molar heat capacity at constant pressure [J/K/mol]": 510}
{"COMPOUND": "CCOS(=O)(=O)[O-].CCc1cccc[n+]1CC [1,2-diethylpyridinium ethylsulfate]", "molar heat capacity at constant pressure [J/K/mol]": 399}
{"COMPOUND": "COS(=O)(=O)[O-].C[n+]1ccccc1 [1-methylpyridinium methylsulfate]", "molar heat capacity at constant pressure [J/K/mol]": 288}

Below is a list of compounds. For each, state its recorded molar heat capacity at constant pressure.
1. CCCC[N+]1(C)CCCC1.N#CN=C=[N-] [1-butyl-1-methylpyrrolidinium dicyanamide]
2. CCCC[n+]1cccc(C)c1.O=S(=O)([O-])C(F)(F)F [1-butyl-3-methylpyridinium trifluoromethanesulfonate]

473
496

----------
Kindly supply the reported refractive index values for the records listed here.
assay: refractive index (Na D-line) (dimensionless); conditions: 308.15 K; 101.33 kPa; Liquid; Standard Abbe refractometry
Give bare numbers.

Past entries and their recorded results:
{"MOLECULE": "CCCC[N+]1(C)CCCC1.N#CN=C=[N-] [1-butyl-1-methylpyrrolidinium dicyanamide]", "refractive index": 1.49392}
{"MOLECULE": "CCCCn1cc[n+](C)c1.O=S(=O)([O-])C(F)(F)F [1-butyl-3-methylimidazolium trifluoromethanesulfonate]", "refractive index": 1.43475}

COS(=O)(=O)[O-].C[n+]1ccccc1 [1-methylpyridinium methylsulfate] yielded refractive index of 1.51077

----------
assay: molar heat capacity at constant pressure; details: 298.15 K; 101.33 kPa; Liquid; Small sample (50 mg) DSC
Kindly supply the reported molar heat capacity at constant pressure values for the records listed here.
Give bare numbers, in J/K/mol.

Past entries and their recorded results:
{"MOLECULE": "COS(=O)(=O)[O-].C[n+]1ccccc1 [1-methylpyridinium methylsulfate]", "READOUT_KIND": "molar heat capacity at constant pressure", "UNIT_OF_MEASURE": "J/K/mol", "VALUE_MEASURED": 299}
{"MOLECULE": "CCCC[N+]1(C)CCCC1.N#CN=C=[N-] [1-butyl-1-methylpyrrolidinium dicyanamide]", "READOUT_KIND": "molar heat capacity at constant pressure", "UNIT_OF_MEASURE": "J/K/mol", "VALUE_MEASURED": 502}
{"MOLECULE": "CCCC[N+]1(C)CCCC1.O=S(=O)([O-])C(F)(F)F [1-butyl-1-methylpyrrolidinium trifluoromethanesulfonate]", "READOUT_KIND": "molar heat capacity at constant pressure", "UNIT_OF_MEASURE": "J/K/mol", "VALUE_MEASURED": 435}

Attention now shifts to the item below.
CCCC[n+]1cccc(C)c1.O=S(=O)([O-])C(F)(F)F [1-butyl-3-methylpyridinium trifluoromethanesulfonate] yielded molar heat capacity at constant pressure of 520

----------
Kindly supply the reported refractive index values for the records listed here.
test: refractive index (Na D-line) (dimensionless); conditions: 298.15 K; 101.33 kPa; Liquid; Standard Abbe refractometry
Give bare numbers.

Past entries and their recorded results:
{"MOLECULE": "CCCCCCn1cc[n+](C)c1.N#CN=C=[N-] [1-hexyl-3-methylimidazolium dicyanamide]", "READOUT_KIND": "refractive index", "VALUE_MEASURED": 1.50415}
{"MOLECULE": "CCOS(=O)(=O)[O-].CCc1cccc[n+]1CC [1,2-diethylpyridinium ethylsulfate]", "READOUT_KIND": "refractive index", "VALUE_MEASURED": 1.5135}
{"MOLECULE": "COS(=O)(=O)[O-].C[n+]1ccccc1 [1-methylpyridinium methylsulfate]", "READOUT_KIND": "refractive index", "VALUE_MEASURED": 1.5134}
{"MOLECULE": "CCCC[N+]1(C)CCCC1.N#CN=C=[N-] [1-butyl-1-methylpyrrolidinium dicyanamide]", "READOUT_KIND": "refractive index", "VALUE_MEASURED": 1.49681}
{"MOLECULE": "CCCCn1cc[n+](C)c1.N#CN=C=[N-] [1-butyl-3-methylimidazolium dicyanamide]", "READOUT_KIND": "refractive index", "VALUE_MEASURED": 1.50893}
{"MOLECULE": "CCCC[n+]1cccc(C)c1.O=S(=O)([O-])C(F)(F)F [1-butyl-3-methylpyridinium trifluoromethanesulfonate]", "READOUT_KIND": "refractive index", "VALUE_MEASURED": 1.46155}

Attention now shifts to the item below.
CCCCn1cc[n+](C)c1.O=S(=O)([O-])C(F)(F)F [1-butyl-3-methylimidazolium trifluoromethanesulfonate] yielded refractive index of 1.43755

----------
assay: molar heat capacity at constant pressure; details: 308.15 K; 101.33 kPa; Liquid; Small sample (50 mg) DSC
Kindly supply the reported molar heat capacity at constant pressure values for the records listed here.
Give bare numbers, in J/K/mol.

Past entries and their recorded results:
{"COMPOUND": "COS(=O)(=O)[O-].C[n+]1ccccc1 [1-methylpyridinium methylsulfate]", "molar heat capacity at constant pressure [J/K/mol]": 305}
{"COMPOUND": "CCOS(=O)(=O)[O-].CCc1cccc[n+]1CC [1,2-diethylpyridinium ethylsulfate]", "molar heat capacity at constant pressure [J/K/mol]": 420}
{"COMPOUND": "CCCC[n+]1cccc(C)c1.O=S(=O)([O-])C(F)(F)F [1-butyl-3-methylpyridinium trifluoromethanesulfonate]", "molar heat capacity at constant pressure [J/K/mol]": 535}
{"COMPOUND": "CCCC[N+]1(C)CCCC1.O=S(=O)([O-])C(F)(F)F [1-butyl-1-methylpyrrolidinium trifluoromethanesulfonate]", "molar heat capacity at constant pressure [J/K/mol]": 441}
{"COMPOUND": "CCCCn1cc[n+](C)c1.N#CN=C=[N-] [1-butyl-3-methylimidazolium dicyanamide]", "molar heat capacity at constant pressure [J/K/mol]": 381}

Below is a list of compounds. For each, state its recorded molar heat capacity at constant pressure.
1. CCCC[N+]1(C)CCCC1.N#CN=C=[N-] [1-butyl-1-methylpyrrolidinium dicyanamide]
2. CCCCCCn1cc[n+](C)c1.N#CN=C=[N-] [1-hexyl-3-methylimidazolium dicyanamide]

[521, 548]

From: the NIST ThermoML archive (doi:10.1021/je201334p)
